# TARGET ENTITY: T1, MotB-His (Enterobacteria phage T4, UniProt Q01437 1-162)
# T1 sequence: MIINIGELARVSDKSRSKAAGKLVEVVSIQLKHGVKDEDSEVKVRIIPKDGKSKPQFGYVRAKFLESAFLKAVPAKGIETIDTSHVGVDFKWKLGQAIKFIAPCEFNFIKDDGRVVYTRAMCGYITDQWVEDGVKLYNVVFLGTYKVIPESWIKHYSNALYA
# ASSAY DETAILS: EMSA; apparent Kd (50% shift); 4 mM Mg acetate; Oligo EMSA/footprint: 40 mM Tris acetate pH 7.9, 20 mM Tris-HCl pH 8.0, 2 mM K phosphate, 60 mM NaCl, 150 mM K glutamate, 4 mM Mg acetate, 0.52 mM EDTA, 0.14 mM DTT, 0.1 mg/mL BSA, 0.004% Triton X-100, 30% glycerol, 1 nM DNA (5 nM in footprint), 37 C 10 min; T4/lambda EMSA: 20 mM Tris-HCl pH 8, 2 mM K phosphate, 60 mM NaCl, 0.42 mM EDTA, 0.04 mM DTT, 0.004% Triton …
# CONDITION LABEL: protein: recombinant; tags: C-terminal His6; label: 5'-32P top strand
READOUT LABEL: Kd (nM)

>  <BINDER>
dsP8 (37 bp) (dsDNA) DNA 1: CAGAGACTATAATTAATAAATACAAAAACTATAAATG DNA 2: CATTTATAGTTTTTGTATTTATTAATTATAGTCTCTG

>  <READOUT LABEL>
Kd

>  <UNITS TEXT>
nM

>  <RESULT VALUE>
100

$$$$
